Collected proliferation of MCF-7 (ER+) cells values appear next to each entry.
Test system: MCF-7 (ER+) cells
Assay Details: Proliferative (estrogenic) activity on MCF-7 (ER+) cells
Type: cell-based
Condition Parameters: 1 μM; 7 days; control 100%
The answer is to be given in %; state only the numeric part.

In [3]: df
Out[3]:
                                   compound  unit_abbreviation  data_value
0  CN(C)CCCN(Cc1ccccc1)Cc1ccc(C(=O)N2CCc3ccc(O)cc3C2)cc1 [3′-EO-05]                  %         126
1  CCN(Cc1ccc(C(=O)N2CCc3ccc(O)cc3C2)cc1)Cc1cccc(Br)c1 [3′-EO-12]                  %         118

Entry under test: CCN(Cc1ccc(Br)cc1)Cc1ccc(C(=O)N2CCc3ccc(O)cc3C2)cc1 [3′-EO-13] . Its proliferation of MCF-7 (ER+) cells was 177

###

Assayed Target: STS (Homo sapiens, UniProt P08842)
Construct: expressed in transfected cells; host or cells: HEK-293 cells stably transfected with STS (G418 selection), obtained from Dr. Van Luu-The; used as freeze-thaw homogenate
Assay Details: STS inhibition of libraries 1-EO to 4-EO, homogenate of STS transfected HEK-293 cells
Assay type: biochemical
Condition Parameters: 0.1 μM; mean ± SEM, triplicate
Assign TRUE to entries whose STS inhibition (%) meets or exceeds 10%; assign FALSE to the rest.

Examples from the recorded data:
>>> print(df.to_string())
                            chemical_string  class
0  CN(C)CCCN(Cc1ccccc1)Cc1ccc(C(=O)N2CCc3ccc(OS(N)(=O)=O)cc3C2)cc1   TRUE
1  CN1CCN(Cc2ccc(C(=O)N3CCc4ccc(OS(N)(=O)=O)cc4C3)cc2)CC1  FALSE
2  NS(=O)(=O)Oc1ccc2c(c1)CN(C(=O)c1ccc(CN3CCC(N4CCCCC4)CC3)cc1)CC2  FALSE
3  CCN(Cc1ccc(C(=O)N2CCc3ccc(OS(N)(=O)=O)cc3C2)cc1)Cc1ccccn1   TRUE
4  NS(=O)(=O)Oc1ccc2c(c1)CN(C(=O)c1cccc(CN(CCCO)Cc3ccccc3)c1)CC2   TRUE

q: Check this molecule for STS inhibition (%) at or above 10%: "NS(=O)(=O)Oc1ccc2c(c1)CN(C(=O)c1cccc(CN(Cc3ccccc3)Cc3ccco3)c1)CC2"
a: TRUE

q: Check this molecule for STS inhibition (%) at or above 10%: "CC(C)CCN(CCC(C)C)Cc1cccc(C(=O)N2CCc3ccc(OS(N)(=O)=O)cc3C2)c1"
a: TRUE

q: Check this molecule for STS inhibition (%) at or above 10%: "CN(C)CCN(CCN(C)C)Cc1cccc(C(=O)N2CCc3ccc(OS(N)(=O)=O)cc3C2)c1"
a: FALSE

q: Check this molecule for STS inhibition (%) at or above 10%: "CCN(Cc1ccc(F)cc1)Cc1cccc(C(=O)N2CCc3ccc(OS(N)(=O)=O)cc3C2)c1"
a: TRUE

###

Assayed Target: STS (Homo sapiens, UniProt P08842)
Construct: expressed in transfected cells; host or cells: HEK-293 cells stably transfected with STS (G418 selection), obtained from Dr. Van Luu-The; used as freeze-thaw homogenate
Sequence (P08842 22-583): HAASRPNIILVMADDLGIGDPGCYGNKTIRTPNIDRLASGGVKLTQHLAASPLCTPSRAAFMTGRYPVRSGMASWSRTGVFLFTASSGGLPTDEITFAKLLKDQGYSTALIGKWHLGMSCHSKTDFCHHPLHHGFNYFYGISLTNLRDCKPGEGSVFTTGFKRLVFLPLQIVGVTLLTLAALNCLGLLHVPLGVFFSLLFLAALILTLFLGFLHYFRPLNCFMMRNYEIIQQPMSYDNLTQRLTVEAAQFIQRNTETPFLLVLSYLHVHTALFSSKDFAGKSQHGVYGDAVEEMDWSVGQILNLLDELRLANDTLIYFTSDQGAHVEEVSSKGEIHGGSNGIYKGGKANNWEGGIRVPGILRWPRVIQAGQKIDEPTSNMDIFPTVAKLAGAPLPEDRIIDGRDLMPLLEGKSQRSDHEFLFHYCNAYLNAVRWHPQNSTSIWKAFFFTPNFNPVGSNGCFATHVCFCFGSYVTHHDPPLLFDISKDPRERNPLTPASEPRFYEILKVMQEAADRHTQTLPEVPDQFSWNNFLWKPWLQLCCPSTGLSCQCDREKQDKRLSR
Assay Details: STS inhibition of libraries 1-EO to 4-EO, homogenate of STS transfected HEK-293 cells
Assay type: biochemical
Condition Parameters: 0.1 μM; mean ± SEM, triplicate
Assay Readout: STS inhibition (%)
The answer is to be given in %; state only the numeric part.

>>> print(df.to_string())
                                   compound  data_value
0  CCN(Cc1ccncc1)Cc1cccc(C(=O)N2CCc3ccc(OS(N)(=O)=O)cc3C2)c1 [4-EO-16]        33.3
1  NS(=O)(=O)Oc1ccc2c(c1)CN(C(=O)c1ccc(CN(CCO)Cc3ccccc3)cc1)CC2 [3-EO-02]        27.9

Summary: CCN(Cc1ccncc1)Cc1ccc(C(=O)N2CCc3ccc(OS(N)(=O)=O)cc3C2)cc1 [3-EO-16] , STS (Homo sapiens, UniProt P08842), STS inhibition (%) = 47.0

Summary: CN(CCCN1CCCCC1)Cc1cccc(C(=O)N2CCc3ccc(OS(N)(=O)=O)cc3C2)c1 [4-EO-07] , STS (Homo sapiens, UniProt P08842), STS inhibition (%) = 24.1

Summary: CCN(Cc1cccc(Br)c1)Cc1cccc(C(=O)N2CCc3ccc(OS(N)(=O)=O)cc3C2)c1 [4-EO-12] , STS (Homo sapiens, UniProt P08842), STS inhibition (%) = 20.9

###

Collected STS inhibition (%) values appear next to each entry.
Assayed Target: STS (Homo sapiens, UniProt P08842)
Construct: expressed in transfected cells; host or cells: HEK-293 cells stably transfected with STS (G418 selection), obtained from Dr. Van Luu-The; used as freeze-thaw homogenate
Assay Details: STS inhibition of libraries 1-EO to 4-EO, homogenate of STS transfected HEK-293 cells
Format: biochemical
Condition Parameters: 0.1 μM; mean ± SEM, triplicate
The answer is to be given in %; state only the numeric part.

Example cases with answers are listed next.
In [3]: df
Out[3]:
                                   compound                      assayed_target       assay_readout  data_value
0  CCCN(Cc1ccccc1)Cc1cccc(C(=O)N2CCc3ccc(OS(N)(=O)=O)cc3C2)c1 [4-EO-01]  STS (Homo sapiens, UniProt P08842)  STS inhibition (%)        23.1
1  CN(C)CCN(Cc1ccccc1)Cc1cccc(C(=O)N2CCc3ccc(OS(N)(=O)=O)cc3C2)c1 [4-EO-04]  STS (Homo sapiens, UniProt P08842)  STS inhibition (%)         0.0
2  NS(=O)(=O)Oc1ccc2c(c1)CN(C(=O)c1cccc(CN3CCc4ccccc4C3)c1)CC2 [4-EO-10]  STS (Homo sapiens, UniProt P08842)  STS inhibition (%)        24.1
3  CC(C)CCN(CCC(C)C)Cc1ccc(C(=O)N2CCc3ccc(OS(N)(=O)=O)cc3C2)cc1 [3-EO-09]  STS (Homo sapiens, UniProt P08842)  STS inhibition (%)        47.0

Entry under test: CCCN(CCC)Cc1cccc(C(=O)N2CCc3ccc(OS(N)(=O)=O)cc3C2)c1 [2-EO-10] . Its STS inhibition (%) was 8.3
